- System: Saccharomyces cerevisiae BY4741 SeMeCo community
- experiment-notes: z-score of subpopulation abundance vs DMSO median, subpopulation auxotrophic for LUM; higher = larger share of this subpopulation than in DMSO controls
- test-conditions: 10 µM; 24 h; SM minimal medium; subpopulation (auxotrophy): LUM
Counter-ions that a name gives are not always drawn.
Lab note: anything with z-score of subpopulation abundance at or over 0.1 counts as TRUE; the rest go in FALSE.

// known answers, use as guide
OC(Cn1cncn1)(Cn1cncn1)c1ccc(F)cc1F: FALSE
Cc1ccnc(NS(=O)(=O)c2ccc(N)cc2)n1: TRUE
Nc1c2c(nc3ccccc13)CCCC2 [Tacrine hydrochloride hydrate]: TRUE
CCCCCc1ccc(C)cc1O: TRUE
Cc1c(OCC(F)(F)F)ccnc1C[S@@+]([O-])c1nc2ccccc2[nH]1: TRUE
O=C1CN(/N=C/c2ccc(-c3ccc([N+](=O)[O-])cc3)o2)C(=O)N1 [Dantrolene sodium hemiheptahydrate]: FALSE
Clc1ccc(C(Cn2ccnc2)OCc2ccsc2Cl)c(Cl)c1 (stereo not given): TRUE
O=C(O)c1ccccc1C(=O)Nc1ccc(S(=O)(=O)Nc2nccs2)cc1: FALSE

Inquiry: Decide: z-score of subpopulation abundance of COc1ccc2c3c1O[C@H]1C[C@@H](O)C=C[C@@]31CCN(C)C2 [Galanthamine HBr] >= 0.1?
Reply text: FALSE

Inquiry: Decide: z-score of subpopulation abundance of NC(=O)[C@@H]1CC[C@@H]2CN1C(=O)N2OS(=O)(=O)O [Avibactam sodium] >= 0.1?
Reply text: TRUE

Inquiry: Decide: z-score of subpopulation abundance of Oc1ccc(Cl)c2cccnc12 >= 0.1?
Reply text: TRUE

Inquiry: Decide: z-score of subpopulation abundance of O=c1[nH]c2ccccc2n1CCN1CCN(c2cccc(C(F)(F)F)c2)CC1 >= 0.1?
Reply text: FALSE

Inquiry: Decide: z-score of subpopulation abundance of CO[C@@H]1[C@@H](O[C@@H]2O[C@H](C)[C@@H](O[C@H]3C[C@@](C)(O)[C@@H](O)[C@H](C)O3)[C@H](N(C)C)[C@H]2O)[C@@H](CC=O)C[C@@H](C)[C@@H](O[C@H]2CC[C@H](N(C)C)[C@@H](C)O2)/C=C/C=C/C[C@@H](C)OC(=O)C[C@H]1OC(C)=O >= 0.1?
Reply text: TRUE

Inquiry: Decide: z-score of subpopulation abundance of C[C@]12CC[C@@H]3c4ccc(O)cc4CC[C@H]3[C@@H]1CC[C@@H]2O >= 0.1?
Reply text: TRUE

Inquiry: Decide: z-score of subpopulation abundance of CC[C@H]1OC(=O)[C@H](C)[C@@H](O[C@H]2C[C@@](C)(OC)[C@@H](O)[C@H](C)O2)[C@H](C)[C@@H](O[C@@H]2O[C@H](C)C[C@H](N(C)C)[C@H]2O)[C@](C)(O)C[C@@H](C)[C@@H]2N[C@@H](COCCOC)O[C@H]([C@H]2C)[C@]1(C)O >= 0.1?
Reply text: TRUE

Measured values drawn from the supplement of paper PMC8975748 for this set.
